- Subject Of Test: Sigma non-opioid intracellular receptor 1 (Rattus norvegicus, UniProt Q9R0C9)
- Sequence (Q9R0C9 whole entry): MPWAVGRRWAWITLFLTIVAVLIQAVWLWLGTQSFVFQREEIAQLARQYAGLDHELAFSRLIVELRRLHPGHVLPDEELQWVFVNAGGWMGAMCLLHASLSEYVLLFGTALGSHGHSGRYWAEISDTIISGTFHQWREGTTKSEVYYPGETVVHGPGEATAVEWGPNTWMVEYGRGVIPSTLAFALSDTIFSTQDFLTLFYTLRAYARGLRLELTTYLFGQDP
- Run Description: Binding affinity for sigma receptor was evaluated by the inhibitory effect on [3H]DTG to rat whole brain membranes
- Format: cell membranes
Measure Name: pIC50
API: returns pIC50 as number; meaning -log10 of concentration in mol/L.

Worked cases, pIC50 given:
- CCCOc1cccc(N2CCN(CCCN3C(=O)CCc4c(Cl)cccc43)CC2)c1: 6.43
- COc1cccc2c1CCC(=O)N2CCCN1CCN(c2cccc(Br)c2)CC1: 6.38
- CCOc1cccc2c1CCC(=O)N2CCCN1CCN(c2cccc(Cl)c2)CC1: 6.06

Looking for the measured pIC50 of COc1cccc2c1N(CCCN1CCN(c3cccc(Cl)c3)CC1)C(=O)CC2 , can you help?
6.22

Similarly, Nc1cccc(N2CCN(CCCN3C(=O)CCc4c(Cl)cccc43)CC2)c1 ?
6.15

One more compound: COc1cccc2c1CCC(=O)N2CCCN1CCN(c2cccc(C(F)(F)F)c2)CC1
6.31

Ok, now O=c1ccc2ccccc2n1CCCN1CCN(c2cccc(Cl)c2)CC1
6.21
